Kindly supply the reported activation at 0.1 µM values for the records listed here.
# target: glucocerebrosidase (Gcase) (Homo sapiens, UniProt P04062)
# Construct: micellar solution containing 10 nM GCase and 100 nM saposin C
# Sequence (P04062 40-536): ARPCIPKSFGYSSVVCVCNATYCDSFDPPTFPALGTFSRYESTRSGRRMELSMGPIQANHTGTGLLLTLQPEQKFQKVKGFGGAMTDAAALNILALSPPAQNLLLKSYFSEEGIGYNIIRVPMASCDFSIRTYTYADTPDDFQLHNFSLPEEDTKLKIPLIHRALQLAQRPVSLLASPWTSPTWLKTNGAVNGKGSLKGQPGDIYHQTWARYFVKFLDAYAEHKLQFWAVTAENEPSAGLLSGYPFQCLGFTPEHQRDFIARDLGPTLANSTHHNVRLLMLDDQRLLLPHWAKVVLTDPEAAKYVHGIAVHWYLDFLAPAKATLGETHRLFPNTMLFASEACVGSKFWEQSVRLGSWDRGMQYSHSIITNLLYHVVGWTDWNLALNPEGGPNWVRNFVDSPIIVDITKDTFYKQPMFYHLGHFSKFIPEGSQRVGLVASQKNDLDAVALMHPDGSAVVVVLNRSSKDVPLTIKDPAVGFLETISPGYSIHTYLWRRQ
# experiment.notes: Glucocerebrosidase (Gcase) activation assay, 4-methylumbelliferyl-beta-D-glucopyranoside substrate, with saposin C
# Assay type: biochemical
# condition.parameters: 0.25 h; read-out: Percent Gcase Activation 0.1 μM Test Compound

query: Please state recorded activation at 0.1 µM (tested on glucocerebrosidase (Gcase) (Homo sapiens, UniProt P04062)) of Cc1cc(N2CCN(C(C)C)C2=O)nn2c(C(=O)NC(C3CC3)C(F)(F)F)cnc12 (stereo not shown)
result: 5 to 20%

query: Another compound: `Cc1cc(-c2ccns2)nn2c(C(=O)NC(C)(C)C3CC3)cnc12`
result: 5 to 20%

query: Another compound: `Cc1cc(-c2cc(F)ccc2C#N)nn2c(C(=O)N[C@@H](C)C3CC3)cnc12`
result: 5 to 20%

query: Another compound: `Cc1cc(-c2cccc(F)c2C#N)nn2c(C(=O)N[C@@H](C)C3CC3)cnc12`
result: > 20%

query: Another compound: Cc1cc(C)c2ncc(C(=O)NC3CCCc4ccccc43)n2n1 (stereo not shown)
result: 5 to 20%

query: Another compound: Cc1cc(-c2ccns2)nn2c(C(=O)NC(C3CC3)C(F)(F)F)cnc12 (stereo not shown)
result: 5 to 20%

query: Another compound: `Cc1cc(C)c2onc(C(=O)NC(C)(C)C3CC3)c2n1`
result: 5 to 20%

query: Another compound: `Cc1cc(C)c2ncc(C(=O)Nc3ccc4c(c3)CCC4)n2n1`
result: 5 to 20%

query: Another compound: `Cc1cc(-c2ccc(C#N)o2)nn2c(C(=O)N[C@@H](C3CC3)C(F)(F)F)cnc12`
result: > 20%

query: Another compound: Cc1cc(-c2ccccn2)nc2c(C(=O)NC(C3CC3)C(F)(F)F)nsc12 (stereo not shown)
result: < 5%

Data provenance is patent US11168087B2.
